System: MDCK
TEST NAME: Cytotoxicity against MDCK cells assessed as reduction in cell viability incubated for 72 hrs by MTT assay
Assay type: cell-based, Canis lupus familiaris
ASSAY CONDITIONS: dog, mdck, 72 h
ENDPOINT: log10 CC20 (log10 of the value in µM)

COMPOUND	ASSAY TARGET	log10 CC20
C#CCNC(=O)/C(C)=C/C(=O)OC[C@]12CC[C@@H](C(=C)C)[C@@H]1[C@H]1CC[C@@H]3[C@@]4(C)CC[C@H](O)C(C)(C)[C@@H]4CC[C@@]3(C)[C@]1(C)CC2	MDCK	1.93
C=C(C)[C@@H]1CC[C@]2(COC(=O)c3ccccc3C(=O)N3CCOCC3)CC[C@]3(C)[C@H](CC[C@@H]4[C@@]5(C)CC[C@H](O)C(C)(C)[C@@H]5CC[C@]43C)[C@@H]12	MDCK	2.16
C=C(C)[C@@H]1CC[C@]2(COC(=O)c3ccccc3C(=O)N3CCSCC3)CC[C@]3(C)[C@H](CC[C@@H]4[C@@]5(C)CC[C@H](O)C(C)(C)[C@@H]5CC[C@]43C)[C@@H]12	MDCK	0.86
C#CCNC(=O)c1cccc(C(=O)OC[C@]23CC[C@@H](C(=C)C)[C@@H]2[C@H]2CC[C@@H]4C5(C)CC[C@H](O)C(C)(C)[C@@H]5CC[C@@]4(C)[C@]2(C)CC3)c1 (single isomer, unassigned)	MDCK	2.20
C=C(C)[C@@H]1CC[C@]2(COC(=O)c3cccc(C(=O)N4CCOCC4)c3)CC[C@]3(C)[C@H](CC[C@@H]4[C@@]5(C)CC[C@H](O)C(C)(C)[C@@H]5CC[C@]43C)[C@@H]12	MDCK	2.16
C=C(C)[C@@H]1CCC2(COC(=O)CCCCCCCCCC(=O)N3CCSCC3)CC[C@]3(C)[C@H](CC[C@@H]4[C@@]5(C)CC[C@H](O)C(C)(C)[C@@H]5CC[C@]43C)[C@@H]12 (single isomer, unassigned)	MDCK	2.06
CCOC(=O)C1=C[C@@H](OC(CC)CC)[C@H](NC(C)=O)[C@@H](N)C1 [OSELTAMIVIR]	MDCK	2.51
C#CC1(NC(=O)CCC(=O)OC[C@]23CC[C@@H](C(=C)C)[C@@H]2[C@H]2CC[C@@H]4[C@@]5(C)CC[C@H](O)C(C)(C)[C@@H]5CC[C@@]4(C)[C@]2(C)CC3)CCCCC1	MDCK	-0.11
C=C(C)[C@@H]1CC[C@]2(COC(=O)c3cccc(C(=O)N4CCCCC4)c3)CC[C@]3(C)[C@H](CC[C@@H]4[C@@]5(C)CC[C@H](O)C(C)(C)[C@@H]5CC[C@]43C)[C@@H]12	MDCK	2.12
C#CC1(NC(=O)c2cccc(C(=O)OC[C@]34CC[C@@H](C(=C)C)[C@@H]3[C@H]3CC[C@@H]5[C@@]6(C)CC[C@H](O)C(C)(C)[C@@H]6CC[C@@]5(C)[C@]3(C)CC4)c2)CCCCC1	MDCK	2.02
C=C(C)[C@@H]1CC[C@]2(COC(=O)CCCC(=O)N3CCSCC3)CC[C@]3(C)[C@H](CC[C@@H]4[C@@]5(C)CC[C@H](O)C(C)(C)[C@@H]5CC[C@]43C)[C@@H]12	MDCK	1.79
C#CCNC(=O)CCC(=O)OC[C@]12CC[C@@H](C(=C)C)C1[C@H]1CC[C@@H]3[C@@]4(C)CC[C@H](O)C(C)(C)[C@@H]4CC[C@@]3(C)[C@]1(C)CC2 (single isomer, unassigned)	MDCK	0.73
C=C(C)[C@@H]1CC[C@]2(COC(=O)CCCCCCCCCC(=O)N3CCOCC3)CC[C@]3(C)[C@H](CC[C@@H]4[C@@]5(C)CC[C@H](O)C(C)(C)[C@@H]5CC[C@]43C)[C@@H]12	MDCK	2.14
C#CC1(NC(=O)CCCC(=O)OC[C@]23CCC(C(=C)C)[C@@H]2[C@H]2CC[C@@H]4[C@@]5(C)CC[C@H](O)C(C)(C)[C@@H]5CC[C@@]4(C)[C@]2(C)CC3)CCCCC1 (single isomer, unassigned)	MDCK	2.04
C=C(C)[C@@H]1CC[C@]2(CO)CC[C@]3(C)[C@H](CC[C@@H]4[C@@]5(C)CC[C@H](O)C(C)(C)[C@@H]5CC[C@]43C)[C@@H]12 [BETULIN]	MDCK	1.45
